experiment: Octanol/buffer distribution coefficient, log D of compound at pH 7.4 incubated for 24 hrs by shake flask based HPLC method; type: physicochemical
Parameter: logD at 24 h. Scope: all listed entries.
MEASURED PARAMETER: logD at 24 h

INSERT INTO measurements (structure_smiles_string, reported_value) VALUES
  ('CC(C)=CCn1c(=O)oc2c(C(=O)/C=C/c3ccc(O)cc3)cccc21', 1.65),
  ('CC(C)=CCn1c(=O)oc2c(C(=O)/C=C/c3cc(F)c(O)c(F)c3)cccc21', 1.13),
  ('CC(C)=CCn1c(=O)oc2c(C(=O)/C=C/c3ccc(O)c(F)c3)cccc21', 1.64),
  ('COC(=O)Cn1c(=O)oc2c(C(=O)/C=C/c3ccc(O)cc3)cccc21', 1.46),
  ('COC(=O)Cn1c(=O)oc2c(C(=O)/C=C/c3ccc(O)c(F)c3)cccc21', 1.31),
  ('COC(=O)Cn1c(=O)oc2c(C(=O)/C=C/c3ccc(O)c(O)c3)cccc21', 0.86),
  ('CC(/C=C1\SC(=S)N(CC(=O)O)C1=O)=C\c1ccccc1', 0.21),
  ('CC(C)=CCn1c(=O)oc2c(C(=O)/C=C/c3ccc(O)c(O)c3)cccc21', 0.98),
  ('COC(=O)Cn1c(=O)oc2c(C(=O)/C=C/c3cc(F)c(O)c(F)c3)cccc21', 1.07),
  ('CC(C)=CCCn1c(=O)oc2c(C(=O)/C=C/c3ccc(O)c(O)c3)cccc21', 1.04);

###

species: Rattus norvegicus; assay: Selectivity index, ratio of IC50 for Wistar rat kidney ALR1 to IC50 for Wistar rat lens ALR2
MEASURED PARAMETER: Ratio IC50

INSERT INTO results (structure_smiles_string, measured_parameter, limit_operator, reported_value) VALUES
  ('O=C(/C=C/c1ccc(O)c(F)c1)c1cccc2[nH]c(=O)oc12', 'Ratio IC50', '=', 1.19),
  ('CC(/C=C1\SC(=S)N(CC(=O)O)C1=O)=C\c1ccccc1', 'Ratio IC50', '=', 44.5),
  ('O=C(/C=C/c1cc(F)c(O)c(F)c1)c1cccc2[nH]c(=O)oc12', 'Ratio IC50', '=', 2.87),
  ('CC(C)=CCn1c(=O)oc2c(C(=O)/C=C/c3ccc(O)c(O)c3)cccc21', 'Ratio IC50', '=', 39.7),
  ('CC(C)=CCn1c(=O)oc2c(C(=O)/C=C/c3ccc(O)c(F)c3)cccc21', 'Ratio IC50', '>', 193),
  ('COC(=O)Cn1c(=O)oc2c(C(=O)/C=C/c3ccc(O)c(C(F)(F)F)c3)cccc21', 'Ratio IC50', '>', 1.78),
  ('COC(=O)Cn1c(=O)oc2c(C(=O)/C=C/c3ccc(O)c(F)c3)cccc21', 'Ratio IC50', '>', 193),
  ('COC(=O)Cn1c(=O)oc2c(C(=O)/C=C/c3ccc(O)cc3OC)cccc21', 'Ratio IC50', '>', 121),
  ('COC(=O)Cn1c(=O)oc2c(C(=O)/C=C/c3cc(F)c(O)c(F)c3)cccc21', 'Ratio IC50', '=', 70.7);

###

test: Antioxidant activity assessed as DPPH radical scavenging activity at 50 uM incubated for 30 mins by DPPH assay relative to control; format: functional
Classes (Activity): 1: < 30%; 2: ≥ 30% and < 80%; 3: ≥ 80%

INSERT INTO assay_data (structure_smiles_string, discrete_label) VALUES
  ('CC(C)=CCn1c(=O)oc2c(C(=O)/C=C/c3ccc(O)c(O)c3)cccc21', 3),
  ('CC(C)=CCCn1c(=O)oc2c(C(=O)/C=C/c3ccc(O)c(O)c3)cccc21', 3),
  ('COC(=O)Cn1c(=O)oc2c(C(=O)/C=C/c3ccc(O)c(O)c3)cccc21', 3),
  ('CC(C)=CCn1c(=O)oc2c(C(=O)/C=C/c3ccc(O)cc3)cccc21', 1),
  ('COC(=O)Cn1c(=O)oc2c(C(=O)/C=C/c3cc(F)c(O)c(F)c3)cccc21', 2),
  ('COC(=O)Cn1c(=O)oc2c(C(=O)/C=C/c3ccc(O)c(F)c3)cccc21', 1),
  ('CC(C)=CCn1c(=O)oc2c(C(=O)/C=C/c3cc(F)c(O)c(F)c3)cccc21', 2),
  ('CC(C)=CCn1c(=O)oc2c(C(=O)/C=C/c3ccc(O)c(F)c3)cccc21', 2);

###

experiment: Antioxidant activity assessed as DPPH radical scavenging activity at 10 uM incubated for 30 mins by DPPH assay relative to control; format: functional
Parameter: Activity. Scope: all listed entries.
MEASURED PARAMETER: Activity (%)

INSERT INTO measurements (compound, reported_value) VALUES
  ('CC(C)=CCn1c(=O)oc2c(C(=O)/C=C/c3ccc(O)c(O)c3)cccc21', 93),
  ('Cc1c(C)c2c(c(C)c1O)CCC(C)(C(=O)O)O2 (stereo not given)', 86.3),
  ('CC(C)=CCn1c(=O)oc2c(C(=O)/C=C/c3cc(F)c(O)c(F)c3)cccc21', 9.1),
  ('COC(=O)Cn1c(=O)oc2c(C(=O)/C=C/c3ccc(O)c(O)c3)cccc21', 94.9),
  ('COC(=O)Cn1c(=O)oc2c(C(=O)/C=C/c3ccc(O)c(F)c3)cccc21', 5.09);

###

assay: Inhibition of Wistar rat kidney ALR1 using sodium D-glucuronate as substrate preincubated for 10 mins in presence of NADPH followed by substrate addition and measured after 4 mins; format: tissue-based
Parameter: IC50. Scope: all listed entries.
MEASURED PARAMETER: IC50

INSERT INTO assay_data (structure_smiles_string, reported_value) VALUES
  ('COC(=O)Cn1c(=O)oc2c(C(=O)/C=C/c3ccc(O)cc3OC)cccc21', '> 100 µM'),
  ('COC(=O)Cn1c(=O)oc2c(C(=O)/C=C/c3ccc(O)cc3)cccc21', '> 100 µM'),
  ('CC(/C=C1\SC(=S)N(CC(=O)O)C1=O)=C\c1ccccc1', '5.29 µM'),
  ('CC(C)=CCn1c(=O)oc2c(C(=O)/C=C/c3ccc(O)c(F)c3)cccc21', '> 100 µM'),
  ('COc1cc(/C=C/C(=O)c2cccc3[nH]c(=O)oc23)ccc1O', '> 100 µM'),
  ('O=C(/C=C/c1ccc(O)c(O)c1)c1cccc2[nH]c(=O)oc12', '2.12 µM'),
  ('CC(C)=CCn1c(=O)oc2c(C(=O)/C=C/c3ccc(O)cc3)cccc21', '> 100 µM'),
  ('COC(=O)Cn1c(=O)oc2c(C(=O)/C=C/c3ccc(O)c(Cl)c3)cccc21', '> 100 µM'),
  ('O=C(/C=C/c1cc(F)c(O)c(F)c1)c1cccc2[nH]c(=O)oc12', '1.41 µM'),
  ('COC(=O)Cn1c(=O)oc2c(C(=O)/C=C/c3cccc(O)c3)cccc21', '> 100 µM'),
  ('COc1cc(O)ccc1/C=C/C(=O)c1cccc2[nH]c(=O)oc12', '> 100 µM'),
  ('O=C(/C=C/c1ccc(O)c(C(F)(F)F)c1)c1cccc2[nH]c(=O)oc12', '> 100 µM'),
  ('O=C(/C=C/c1ccc(O)c(Cl)c1)c1cccc2[nH]c(=O)oc12', '> 100 µM'),
  ('COC(=O)Cn1c(=O)oc2c(C(=O)/C=C/c3ccc(O)c(F)c3)cccc21', '> 100 µM'),
  ('CC(C)=CCn1c(=O)oc2c(C(=O)/C=C/c3cc(F)c(O)c(F)c3)cccc21', '4.75 µM'),
  ('O=C(/C=C/c1ccc(O)c(F)c1)c1cccc2[nH]c(=O)oc12', '3.75 µM'),
  ('CC(C)=CCCn1c(=O)oc2c(C(=O)/C=C/c3ccc(O)c(O)c3)cccc21', '10.3 µM'),
  ('O=C(/C=C/c1ccc(O)cc1)c1cccc2[nH]c(=O)oc12', '> 100 µM'),
  ('COC(=O)Cn1c(=O)oc2c(C(=O)/C=C/c3ccc(OC)cc3)cccc21', '> 100 µM'),
  ('COC(=O)Cn1c(=O)oc2c(C(=O)/C=C/c3ccc(O)c(OC)c3)cccc21', '> 100 µM'),
  ('COC(=O)Cn1c(=O)oc2c(C(=O)/C=C/c3ccc(O)c(C(F)(F)F)c3)cccc21', '> 100 µM'),
  ('COc1ccc(/C=C/C(=O)c2cccc3[nH]c(=O)oc23)cc1', '> 100 µM'),
  ('CC(C)=CCn1c(=O)oc2c(C(=O)/C=C/c3ccc(O)c(O)c3)cccc21', '7.48 µM'),
  ('O=C(/C=C/c1cccc(O)c1)c1cccc2[nH]c(=O)oc12', '> 100 µM'),
  ('COC(=O)Cn1c(=O)oc2c(C(=O)/C=C/c3ccc(O)c(O)c3)cccc21', '6.22 µM'),
  ('COC(=O)Cn1c(=O)oc2c(C(=O)/C=C/c3cc(F)c(O)c(F)c3)cccc21', '7.84 µM');
